biological target: human muscarinic M3 receptor (Homo sapiens); construct: expressed in transfected cells; host or cells: CHO (CHO-K1) cells; assay: hM3 competition binding assay (3H-NMS, CHO cell membranes); conditions: CHO cell membranes expressing human M3; 3H-NMS at 5×KD, 24 hr at RT; IC50 corrected by Cheng-Prussoff
So basically: is Ki under 0.8 nM? Then yes (1). Not under? Then no (0).

Previously resolved entries follow.
smiles.data: CN(CCCCCCCCCN1CCC(OC(=O)Nc2ccccc2-c2ccccc2)CC1)C(=O)c1ccc(F)c(F)c1O
class.label: no (0)
//
smiles.data: O=C(Nc1ccccc1-c1ccccc1)OC1CCN(CCCCCCCCCNCc2ccc(O)c(F)c2)CC1
class.label: yes (1)
//
smiles.data: O=C(Nc1ccccc1-c1ccccc1)OC1CCN(CCCCCCCCCNC(=O)c2ccc(O)c(Cl)c2)CC1
class.label: no (0)

INPUT: Record CN(CCCCCCCCCN1CCC(OC(=O)Nc2ccccc2-c2ccccc2)CC1)Cc1cc(Cl)ccc1O : is its Ki strictly below 0.8 nM?
OUTPUT: yes (1)

INPUT: Repeat with CN(CCCCCCCCCN1CCC(OC(=O)Nc2ccccc2-c2ccccc2)CC1)C(=O)c1cc(F)ccc1O
OUTPUT: no (0)

INPUT: Repeat with CN(CCCCCCCCCN1CCC(OC(=O)Nc2ccccc2-c2ccccc2)CC1)Cc1ccc(O)c(Cl)c1
OUTPUT: yes (1)

INPUT: Repeat with O=C(Nc1ccccc1-c1ccccc1)OC1CCN(CCCCCCCCCNCc2cc(Cl)ccc2O)CC1
OUTPUT: no (0)

* * *

molecular target: human muscarinic M3 receptor (Homo sapiens, UniProt P20309); construct: expressed in transfected cells; host or cells: CHO (CHO-K1) cells; test: hM3 competition binding assay (3H-NMS, CHO cell membranes); conditions: CHO cell membranes expressing human M3; 3H-NMS at 5×KD, 24 hr at RT; IC50 corrected by Cheng-Prussoff
Sequence (P20309 whole entry): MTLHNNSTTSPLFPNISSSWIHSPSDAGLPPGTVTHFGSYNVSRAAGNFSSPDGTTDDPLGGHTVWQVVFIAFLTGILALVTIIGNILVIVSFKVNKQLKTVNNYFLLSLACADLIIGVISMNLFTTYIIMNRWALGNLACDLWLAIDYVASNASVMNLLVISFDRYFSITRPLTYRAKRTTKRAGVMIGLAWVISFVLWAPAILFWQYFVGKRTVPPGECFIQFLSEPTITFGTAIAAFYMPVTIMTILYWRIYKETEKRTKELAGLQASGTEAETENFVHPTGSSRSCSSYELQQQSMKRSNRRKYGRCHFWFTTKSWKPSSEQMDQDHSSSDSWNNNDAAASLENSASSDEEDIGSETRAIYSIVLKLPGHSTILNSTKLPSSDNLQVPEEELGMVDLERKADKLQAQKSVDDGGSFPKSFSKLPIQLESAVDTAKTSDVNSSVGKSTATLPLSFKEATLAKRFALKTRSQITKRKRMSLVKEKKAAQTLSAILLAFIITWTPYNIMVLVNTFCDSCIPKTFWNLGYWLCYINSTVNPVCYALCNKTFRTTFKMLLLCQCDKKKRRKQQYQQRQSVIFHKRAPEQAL
So basically: is Ki under 1 nM? Then 1 (yes). Not under? Then 0 (no).

smiles.data: O=C(Nc1ccccc1-c1ccccc1)OC1CCN(CCCCCCCCCNCc2cc(Cl)cc(Cl)c2O)CC1
class.label: 0 (no)
--
smiles.data: CN(CCCCCCCCCN1CCC(OC(=O)Nc2ccccc2-c2ccccc2)CC1)C(=O)c1cccc(Cl)c1O
class.label: 1 (yes)
--
smiles.data: O=C(Nc1ccccc1-c1ccccc1)OC1CCN(CCCCCCCCCNCc2cc(F)ccc2O)CC1
class.label: 0 (no)
--
smiles.data: O=C(Nc1ccccc1-c1ccccc1)OC1CCN(CCCCCCCCCNC(=O)c2ccc(O)cc2Cl)CC1
class.label: 0 (no)

INPUT: Record O=C(Nc1ccccc1-c1ccccc1)OC1CCN(CCCCCCCCCNC(=O)c2cc(Cl)c(O)c(Cl)c2)CC1 : is its Ki strictly below 1 nM?
OUTPUT: 0 (no)

INPUT: Repeat with CN(CCCCCCCCCN1CCC(OC(=O)Nc2ccccc2-c2ccccc2)CC1)Cc1cccc(O)c1Cl
OUTPUT: 1 (yes)

INPUT: Repeat with O=C(Nc1ccccc1-c1ccccc1)OC1CCN(CCCCCCCCCNC(=O)c2cccc(Cl)c2O)CC1
OUTPUT: 0 (no)

INPUT: Repeat with CN(CCCCCCCCCN1CCC(OC(=O)Nc2ccccc2-c2ccccc2)CC1)Cc1ccc(O)c(F)c1
OUTPUT: 1 (yes)

* * *

Recorded Ki, one value per entry.
Target: human muscarinic M3 receptor (Homo sapiens)
Construct: expressed in transfected cells; host or cells: CHO (CHO-K1) cells
Experiment: hM3 competition binding assay (3H-NMS, CHO cell membranes)
Details: CHO cell membranes expressing human M3; 3H-NMS at 5×KD, 24 hr at RT; IC50 corrected by Cheng-Prussoff
Procedure: Binding Affinity Assessment at the Human Recombinant M3 Muscarinic Receptor Cell Pellets from CHO (Chinese Hamster Ovary) cells recombinantly expressing the human muscarinic M3 receptor were homogenised in 20 mM HEPES (pH7.4) and centrifuged at 48000×g for 20 min at 4° C. […] Once all assay components were added, plates were covered and incubated at room temperature for 24 hrs with shaking. […] Following 90 mins, the plates were read on an NXT Topcount (1 minute read time per well). […]
State just the number; it will be interpreted in nM.

compound: O=C(Nc1ccccc1-c1ccccc1)OC1CCN(CCCCCCCCCNCc2ccc(Cl)c(O)c2Cl)CC1 [Example 37]
Ki [nM]: 0.342

compound: CN(CCCCCCCCCN1CCC(OC(=O)Nc2ccccc2-c2ccccc2)CC1)Cc1cc(Cl)cc(Cl)c1O [Example 52]
Ki [nM]: 0.637

compound: CN(CCCCCCCCCN1CCC(OC(=O)Nc2ccccc2-c2ccccc2)CC1)C(=O)c1ccc(O)c(F)c1 [Example 69]
Ki [nM]: 0.615

Now examine the next entry.
INPUT: Param readout= Ki; system= human muscarinic M3 receptor (Homo sapiens); entry= CN(CCCCCCCCCN1CCC(OC(=O)Nc2ccccc2-c2ccccc2)CC1)C(=O)Cc1ccc(O)c(Cl)c1 [Example 15] ; returns value.
OUTPUT: 2.37

* * *

target: human muscarinic M3 receptor (Homo sapiens, UniProt P20309); construct: expressed in transfected cells; host or cells: CHO (CHO-K1) cells; assay: Cell based potency assessment, hM3 β-lactamase assay (CHO cell β-lactamase); conditions: CHO cells recombinantly expressing human M3, NFAT-β-lactamase reporter; inhibition of 80 nM carbamyl choline signal, 4 h; IC50 converted by Cheng-Prusoff
Recorded Ki, one value per entry.
State just the number; it will be interpreted in nM.

smiles.data: O=C(Nc1ccccc1-c1ccccc1)OC1CCN(CCCCCCCCCNC(=O)c2cccc(Cl)c2O)CC1
Ki (nM): 8.15

INPUT: Could you share which Ki value was measured for O=C(Nc1ccccc1-c1ccccc1)OC1CCN(CCCCCCCCCNCc2cc(Cl)c(Cl)cc2O)CC1 ?
OUTPUT: 3.59

INPUT: Repeat with O=C(Nc1ccccc1-c1ccccc1)OC1CCN(CCCCCCCCCNC(=O)c2ccc(Cl)c(O)c2)CC1
OUTPUT: 1.32

INPUT: Repeat with O=C(Nc1ccccc1-c1ccccc1)OC1CCN(CCCCCCCCCNCc2cccc(O)c2Cl)CC1
OUTPUT: 0.894

* * *

Recorded Ki, one value per entry.
molecular target: human muscarinic M3 receptor (Homo sapiens, UniProt P20309); construct: expressed in transfected cells; host or cells: CHO (CHO-K1) cells; assay: hM3 competition binding assay (3H-NMS, CHO cell membranes); conditions: CHO cell membranes expressing human M3; 3H-NMS at 5×KD, 24 hr at RT; IC50 corrected by Cheng-Prussoff
State just the number; it will be interpreted in nM.

Here are 2 compounds together with their reported answers.
smiles.data: CN(CCCCCCCCCN1CCC(OC(=O)Nc2ccccc2-c2ccccc2)CC1)C(=O)Cc1ccc(O)c(F)c1
Ki, nM: 2.29
--
smiles.data: O=C(Nc1ccccc1-c1ccccc1)OC1CCN(CCCCCCCCCNCc2cc(F)cc(Cl)c2O)CC1
Ki, nM: 2.33

Now examine the next entry.
INPUT: Could you share which Ki value was measured for O=C(Nc1ccccc1-c1ccccc1)OC1CCN(CCCCCCCCCNCc2cccc(F)c2O)CC1 ?
OUTPUT: 1.31

* * *

target: human muscarinic M3 receptor (Homo sapiens, UniProt P20309); construct: expressed in transfected cells; host or cells: CHO (CHO-K1) cells; assay: Cell based potency assessment, hM3 β-lactamase assay (CHO cell β-lactamase); settings: CHO cells recombinantly expressing human M3, NFAT-β-lactamase reporter; inhibition of 80 nM carbamyl choline signal, 4 h; IC50 converted by Cheng-Prusoff
pKi: −log10 of the molar value.
Classification field: enter Criterion met for pKi values not below 9, Criterion not met for values below it.

smiles.data: O=C(Nc1ccccc1-c1ccccc1)OC1CCN(CCCCCCCCCNC(=O)c2ccc(Cl)cc2O)CC1
class.label: Criterion not met

smiles.data: O=C(Nc1ccccc1-c1ccccc1)OC1CCN(CCCCCCCCCNC(=O)c2cc(Cl)cc(Cl)c2O)CC1
class.label: Criterion not met

smiles.data: O=C(Nc1ccccc1-c1ccccc1)OC1CCN(CCCCCCCCCNCc2cc(F)c(Cl)cc2O)CC1
class.label: Criterion not met

smiles.data: CN(CCCCCCCCCN1CCC(OC(=O)Nc2ccccc2-c2ccccc2)CC1)C(=O)c1ccc(F)c(O)c1
class.label: Criterion met

Turning now to a further record.
INPUT: Does CN(CCCCCCCCCN1CCC(OC(=O)Nc2ccccc2-c2ccccc2)CC1)C(=O)Cc1ccc(O)c(Cl)c1 have a reported pKi of at least 9?
OUTPUT: Criterion met

* * *

biological target: human muscarinic M3 receptor (Homo sapiens); construct: expressed in transfected cells; host or cells: CHO (CHO-K1) cells; experiment: hM3 competition binding assay (3H-NMS, CHO cell membranes); conditions: CHO cell membranes expressing human M3; 3H-NMS at 5×KD, 24 hr at RT; IC50 corrected by Cheng-Prussoff
So basically: is Ki under 0.6 nM? Then true. Not under? Then false.

INPUT: Record O=C(Nc1ccccc1-c1ccccc1)OC1CCN(CCCCCCCCCNCc2cc(F)cc(F)c2O)CC1 : is its Ki strictly below 0.6 nM?
OUTPUT: false

INPUT: Repeat with CN(CCCCCCCCCN1CCC(OC(=O)Nc2ccccc2-c2ccccc2)CC1)C(=O)c1ccc(F)c(O)c1
OUTPUT: false
